- measurement-target: C-X-C chemokine receptor type 3 (Mus musculus, UniProt O88410)
- Sequence (O88410 whole entry): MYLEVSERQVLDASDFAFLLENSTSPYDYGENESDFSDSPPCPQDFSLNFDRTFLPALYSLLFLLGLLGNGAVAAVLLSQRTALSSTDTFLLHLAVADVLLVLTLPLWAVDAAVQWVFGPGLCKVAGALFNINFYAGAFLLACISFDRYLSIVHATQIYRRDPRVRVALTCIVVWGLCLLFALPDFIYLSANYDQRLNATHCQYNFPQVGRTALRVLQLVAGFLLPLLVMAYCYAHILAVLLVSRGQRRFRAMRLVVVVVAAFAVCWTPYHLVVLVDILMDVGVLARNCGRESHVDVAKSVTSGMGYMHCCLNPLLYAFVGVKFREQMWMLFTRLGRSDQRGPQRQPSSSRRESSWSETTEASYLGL
- protocol-description: Antagonist activity at mouse CXCR3 expressed in mouse L1.2 cells assessed as inhibition of ITAC-induced calcium mobilization by FLIPR assay
pIC50: −log10 of the molar value.

chemical-string | pIC50
O=C([C@@H]1C=C2c3cccc4[nH]cc(c34)C[C@H]2N(C(=O)Nc2ccccc2)C1)N1CCS(=O)(=O)CC1 | 6.27
O=C([C@@H]1C=C2c3cccc4[nH]cc(c34)C[C@H]2N(C(=O)NC2CCCCCC2)C1)N1CCCC1 | 7.80
CCNC(=O)[C@@H]1C=C2c3cccc4[nH]cc(c34)C[C@H]2N(C(=O)Nc2ccccc2)C1 | 7.05
CC(C)OC(=O)Cn1cc2c3c(cccc31)C1=C[C@@H](C(=O)N3CCCC3)CN(C(=O)Nc3ccccc3)[C@@H]1C2 | 7.28
O=C([C@@H]1C=C2c3cccc4[nH]cc(c34)C[C@H]2N(C(=O)Nc2cccs2)C1)N1CCCC1 | 8.00
O=C([C@@H]1C=C2c3cccc4[nH]cc(c34)C[C@H]2N(C(=O)Nc2ccccc2)C1)N1CCCC1 | 8.40
O=C([C@@H]1C=C2c3cccc4c3c(cn4CCN3CCOCC3)C[C@H]2N(C(=O)Nc2ccccc2)C1)N1CCCC1 | 8.30
CN1CCN(C(=O)[C@@H]2C=C3c4cccc5[nH]cc(c45)C[C@H]3N(C(=O)Nc3ccccc3)C2)CC1 | 6.95
O=C([C@@H]1C=C2c3cccc4[nH]cc(c34)C[C@H]2N(C(=O)Nc2ccccc2)C1)N1CC[C@H](O)C1 | 7.72
O=C([C@@H]1C=C2c3cccc4c3c(cn4CCN3CCCCC3)C[C@H]2N(C(=O)Nc2ccccc2)C1)N1CCCC1 | 8.52
COCCN(CCOC)C(=O)[C@@H]1C=C2c3cccc4[nH]cc(c34)C[C@H]2N(C(=O)Nc2ccccc2)C1 | 6.36
O=C([C@@H]1C=C2c3cccc4c3c(cn4CCO)C[C@H]2N(C(=O)Nc2ccccc2)C1)N1CCCC1 | 8.40
O=C([C@@H]1C=C2c3cccc4[nH]cc(c34)C[C@H]2N(C(=O)Nc2ccccc2)C1)N1CC[C@@H](O)[C@@H](O)C1 | 7.40
O=C([C@@H]1C=C2c3cccc4[nH]cc(c34)C[C@H]2N(C(=O)Nc2ccsc2)C1)N1CCCC1 | 7.96
O=C([C@@H]1C=C2c3cccc4[nH]cc(c34)C[C@H]2N(C(=O)Nc2ccccc2)C1)N1CCCCC1 | 8.22
O=C([C@@H]1C=C2c3cccc4[nH]cc(c34)C[C@H]2N(C(=O)Nc2ccc(F)cc2)C1)N1CCCC1 | 8.40
